# Tested on: primary human T-cells
# experimental-details: Proliferation assay after 5 days (CellTiter-Glo, CD3 stimulation; PBS counter screen)
# Type: cell-based
# assay-conditions: primary human T-cells, CD3 stimulation, CellTiter-Glo after 5 days; EC50 of fitted sigmoidal curve; read-out: Tcell Proliferation CD3 EC50
Measured EC50, listed per entry.
Give just the number in µM; leave the unit off.

N[C@H]1C[S+]([O-])c2cc(F)c(-c3noc(N4CCOC5(CC5)C4)n3)cc2N(Cc2ccc(Cl)cc2)C1=O (single isomer, unassigned; epimer b) [Example 210] ... 1.55

Next up:
## Task So what does the record say about EC50 for CC(C)(C)c1nnc(-c2cc3c(cc2F)[S+]([O-])C[C@H](N)C(=O)N3Cc2ccc(Cl)cc2)o1 (stereo partly drawn) [Example 186] ?
## Result 0.71

Source of measurements: patent US20240368150A1
